# targetOfAssay: KRAS^G12D-GDP (Homo sapiens (Human), UniProt P01116, G12D)
# Sequence (P01116-2 other isoform, or with tags, fused parts or gaps G12D): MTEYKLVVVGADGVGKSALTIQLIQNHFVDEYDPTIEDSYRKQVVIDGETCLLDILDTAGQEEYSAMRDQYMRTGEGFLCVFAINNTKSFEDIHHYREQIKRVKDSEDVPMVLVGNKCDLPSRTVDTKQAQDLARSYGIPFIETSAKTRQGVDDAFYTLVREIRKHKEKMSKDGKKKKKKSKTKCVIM
# test: NMR Kd, KRAS^G12D-GDP
# studyConditions: 1H 1D protein-observed NMR, read-out: 1H 1D PO NMR Kd
pKd: −log10 of the molar value.
endpoint: pKd

In the examples that follow, each entry is paired with its recorded pKd.
>  <smilesInput>
O=C(Cc1c[nH]c2cc(F)ccc12)N1CCC(O)CC1

>  <pKd>
2.39 to 2.72

$$$$
>  <smilesInput>
CC(=O)N1CCN(C(=O)Cc2c[nH]c3cc(F)ccc23)CC1

>  <pKd>
2.28

$$$$

Kindly consider the entry below.
QUERY: Give the measured pKd of CC(C)N1CCC(NC(=O)Cc2c[nH]c3cc(F)ccc23)CC1 .
RESULT: 2.20 to 2.30

====

# targetOfAssay: HRas^G12V (Homo sapiens (Human), UniProt P01112, G12V)
# Sequence (P01112 1-166 G12V): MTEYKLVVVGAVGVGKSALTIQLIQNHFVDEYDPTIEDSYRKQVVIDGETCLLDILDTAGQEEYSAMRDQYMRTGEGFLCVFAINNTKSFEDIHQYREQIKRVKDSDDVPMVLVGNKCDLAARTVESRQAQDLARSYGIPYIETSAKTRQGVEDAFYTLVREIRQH
# test: 19F DLB (ligand-observed 19F NMR) score
# Assay type: binding
# Design: scale not given here
endpoint: 19F DLB Score

>  <molecule>
O=C(O)CC(c1ccc(F)cc1F)c1c[nH]c2cc(F)ccc12 (centres unmarked) [Compound 11056]

>  <targetOfAssay>
HRas^G12V (Homo sapiens (Human), UniProt P01112, G12V)

>  <endpoint>
19F DLB Score

>  <recordedResult>
Non conclusive

$$$$
>  <molecule>
N#CC(C(=O)N[C@@H](Cc1ccc(O)cc1)C(=O)O)c1c[nH]c2cc(F)ccc12 (some centres unmarked) [Compound 11031]

>  <targetOfAssay>
HRas^G12V (Homo sapiens (Human), UniProt P01112, G12V)

>  <endpoint>
19F DLB Score

>  <recordedResult>
1.97

$$$$
>  <molecule>
COC(=O)[C@H]1CN(C(=O)Cc2c[nH]c3cc(F)ccc23)CCN1C [Compound 10156]

>  <targetOfAssay>
HRas^G12V (Homo sapiens (Human), UniProt P01112, G12V)

>  <endpoint>
19F DLB Score

>  <recordedResult>
1.42

$$$$
>  <molecule>
O=C(O)C[C@@H](c1ccccc1F)c1c[nH]c2cc(F)ccc12 (single isomer, unassigned) [Compound 11053]

>  <targetOfAssay>
HRas^G12V (Homo sapiens (Human), UniProt P01112, G12V)

>  <endpoint>
19F DLB Score

>  <recordedResult>
2.29

$$$$
>  <molecule>
CCOC(=O)C(Cc1ccccc1)NC(=O)Cc1c[nH]c2cc(F)ccc12 (centres unmarked) [Compound 10096]

>  <targetOfAssay>
HRas^G12V (Homo sapiens (Human), UniProt P01112, G12V)

>  <endpoint>
19F DLB Score

>  <recordedResult>
1.14

$$$$

QUERY: Fill in the blank: the reported 19F DLB Score of O=C(O)C[C@@H]1CN(C(=O)Cc2c[nH]c3cc(F)ccc23)CCO1 [Compound 10175] is ____.
RESULT: 1.19

QUERY: // query 19F DLB Score value for entry CCOC(=O)C(Cc1ccc(O)cc1)NC(=O)Cc1c[nH]c2cc(F)ccc12 (centres unmarked) [Compound 10098]
RESULT: 1.38

QUERY: Any idea what 19F DLB Score was measured for CN1CCN(C(=O)Cc2c[nH]c3cc(F)ccc23)CC1=O [Compound 10146] ?
RESULT: 1.56

QUERY: I am curious: what 19F DLB Score value has been reported for CN1CCN(C(=O)Cc2c[nH]c3cc(F)ccc23)[C@H](C(=O)O)C1 [Compound 10158] ?
RESULT: 0.93

QUERY: Can you look up the measured 19F DLB Score of CC(=O)N1CCC(C(=O)N2CCC(c3c[nH]c4cc(F)ccc34)C2)CC1 (centres unmarked) [Compound 11024] for me?
RESULT: 1.89

QUERY: Item CN(C)CC(=O)Nc1ccc(NC(=O)Cc2c[nH]c3cc(F)ccc23)cc1 [Compound 11008] has what recorded 19F DLB Score?
RESULT: 6.41

QUERY: I have this molecule here, O=C(O)[C@@H]1CCCN(C(=O)Cc2c[nH]c3cc(F)ccc23)C1 [Compound 10149] , and I need its recorded 19F DLB Score.
RESULT: 1.56

QUERY: So what's the measured 19F DLB Score for this one? O=C(O)C(NCc1ccc(O)cc1)c1c[nH]c2cc(F)ccc12 (centres unmarked) [Compound 11063]
RESULT: Non conclusive

QUERY: What value of 19F DLB Score has been recorded for this entry: CC(C)N1CCN(C(=O)Cc2c[nH]c3cc(F)ccc23)CC1 [Compound 10068]
RESULT: 2.43

QUERY: State the recorded 19F DLB Score for this entry: O=C(Cc1c[nH]c2cc(F)ccc12)NCCc1cccnc1 [Compound 10029]
RESULT: 1.19

QUERY: # input molecule: O=C(Cc1c[nH]c2cc(F)ccc12)N[C@H]1CCOC1 [Compound 10070] ; wanted: its 19F DLB Score
RESULT: 1.46

QUERY: Which 19F DLB Score is reported for this molecule? COC(=O)C1CN(C(C)C)CCC1NC(=O)Cc1c[nH]c2cc(F)ccc12 (centres unmarked) [Compound 10141]
RESULT: 1.21

====

# targetOfAssay: HRas^G12V (Homo sapiens (Human), UniProt P01112, G12V)
# test: 19F DLB (ligand-observed 19F NMR) score
# Format: binding
# Set-up: scale not given here
Below, each of the compounds is paired with its reported 19F DLB Score value.
The answer should be written as a number, with no unit following it.

// worked examples, 19F DLB Score included
>  <compound>
O=C(C1CCC(O)CC1)N1CCC(c2c[nH]c3cc(F)ccc23)CC1 (stereo not drawn)

>  <19F DLB Score>
2.48

$$$$
>  <compound>
O=S(=O)(NCCc1c[nH]c2cc(F)ccc12)c1ccc(F)cc1

>  <19F DLB Score>
1.02

$$$$
>  <compound>
CC(=O)NC[C@@H]1CN(C(=O)Cc2c[nH]c3cc(F)ccc23)CCO1

>  <19F DLB Score>
1.61

$$$$

QUERY: Report 19F DLB Score for C[C@@H](NC(=O)Cc1c[nH]c2cc(F)ccc12)C(=O)O please.
RESULT: 1.14

QUERY: Query (compound): CCOC(=O)[C@@H](C)NC(=O)Cc1c[nH]c2cc(F)ccc12 ; field requested: 19F DLB Score
RESULT: 1.25

QUERY: Item under review: O=C(CN1CCC1)c1c[nH]c2cc(F)ccc12 . Reported 19F DLB Score?
RESULT: 2.43

QUERY: For the compound CCOC(=O)C[C@H]1CN(C(=O)Cc2c[nH]c3cc(F)ccc23)CCO1 , what 19F DLB Score is on record?
RESULT: 1.12

QUERY: What value of measured 19F DLB Score is listed for O=C1CN(C(=O)Cc2c[nH]c3cc(F)ccc23)CCN1 ?
RESULT: 1.64

QUERY: Requested read-out: 19F DLB Score. Entry: CCOC(=O)C(CC(N)=O)NC(=O)Cc1c[nH]c2cc(F)ccc12 (stereo not drawn)
RESULT: 1.12

====

# targetOfAssay: HRas^G12V (Homo sapiens (Human), UniProt P01112, G12V)
# test: 19F DLB (ligand-observed 19F NMR) score
# Format: binding
# Set-up: scale not given here
endpoint: 19F DLB Score
Answer with the value's number alone.

>  <compound>
CCOC(=O)[C@H](C)NC(=O)Cc1c[nH]c2cc(F)ccc12

>  <recordedResult>
1.1

$$$$
>  <compound>
CC(=O)N1CCN(C(=O)Cc2c[nH]c3cc(F)ccc23)CC1

>  <recordedResult>
1.64

$$$$
>  <compound>
Cc1[nH]c2cc(F)ccc2c1CC(=O)N1CCC1

>  <recordedResult>
0.96

$$$$
>  <compound>
O=C(O)CC(c1ccccc1F)c1c[nH]c2cc(F)ccc12 (stereo not drawn) [Compound 11043]

>  <recordedResult>
3.27

$$$$
>  <compound>
CN(C)Cc1[nH]c2cc(F)ccc2c1C(CC(=O)O)c1ccccc1F (stereo not drawn)

>  <recordedResult>
0.91

$$$$

QUERY: Request: 19F DLB Score, test system HRas^G12V (Homo sapiens (Human), UniProt P01112, G12V), entry O=C(O)[C@H]1CN(C(=O)Cc2c[nH]c3cc(F)ccc23)CCO1
RESULT: 1.39

QUERY: GET /values?readout=19F DLB Score&system=HRas^G12V (Homo sapiens (Human), UniProt P01112, G12V)&item= COCC1(C)CN(C(=O)Cc2c[nH]c3cc(F)ccc23)C1
RESULT: 2.1

QUERY: What measured 19F DLB Score is associated with CC(c1ccncc1)N(C)C(=O)Cc1c[nH]c2cc(F)ccc12 (stereo not drawn) on HRas^G12V (Homo sapiens (Human), UniProt P01112, G12V)?
RESULT: 1.73

QUERY: Enter reported 19F DLB Score observed with HRas^G12V (Homo sapiens (Human), UniProt P01112, G12V) for CCOC(=O)[C@@H]1CN(C(=O)Cc2c[nH]c3cc(F)ccc23)CCO1
RESULT: 1.43

QUERY: Give HRas^G12V (Homo sapiens (Human), UniProt P01112, G12V) 19F DLB Score for O=C(O)CC1CCN(C(=O)Cc2c[nH]c3cc(F)ccc23)CC1
RESULT: 1.3

QUERY: What reported 19F DLB Score corresponds to CC1(C)OC(=O)C(C(c2ccccc2F)c2c[nH]c3cc(F)ccc23)C(=O)O1 (stereo not drawn) [Compound 11041] on HRas^G12V (Homo sapiens (Human), UniProt P01112, G12V)?
RESULT: 1.65

QUERY: Item Fc1ccc2c(CCNCCc3c[nH]c4cc(F)ccc34)c[nH]c2c1 with HRas^G12V (Homo sapiens (Human), UniProt P01112, G12V) - 19F DLB Score?
RESULT: 1.19
